Entries annotated with measured Positive skin reactions (subjects)
test system: birch pollen allergic volunteers; experiment: Skin prick tests (SPT) of allergic patients; settings: dilution 1:1; 20 volunteers; weal 4 mm or more with erythema
Enter the number alone.

Exam item: // query Positive skin reactions (subjects) value for entry AllerT2: SEQ ID NO: 2, aa 48-118 of SEQ ID 9 (Bet v 1) contiguous overlapping peptide (peptide) NGGPGTIKKISFPEGFPFKYVKDRVDEVDHTNFKYNYSVIEGGPIGDTLEKISNEIKIVATPDGGSILKIS
Marked response: 0

Exam item: // query Positive skin reactions (subjects) value for entry AllerT5: SEQ ID NO: 5, aa 65-160 of SEQ ID 9 (Bet v 1) contiguous overlapping peptide (peptide) FKYVKDRVDEVDHTNFKYNYSVIEGGPIGDTLEKISNEIKIVATPDGGSILKISNKYHTKGDHEVKAEQVKASKEMGETLLRAVESYLLAHSDAYN
Marked response: 0

Exam item: // query Positive skin reactions (subjects) value for entry r Bet v 1: Purified recombinant Bet v 1, birch pollen major allergen, purchased from BIOMAY; SEQ ID 9, Swissprot P15494 (protein) MGVFNYETETTSVIPAARLFKAFILDGDNLFPKVAPQAISSVENIEGNGGPGTIKKISFPEGFPFKYVKDRVDEVDHTNFKYNYSVIEGGPIGDTLEKISNEIKIVATPDGGSILKISNKYHTKGDHEVKAEQVKASKEMGETLLRAVESYLLAHSDAYN
Marked response: 20

Exam item: // query Positive skin reactions (subjects) value for entry AllerT4: SEQ ID NO: 4, aa 2-85 of SEQ ID 9 (Bet v 1) contiguous overlapping peptide (peptide) GVFNYETETTSVIPAARLFKAFILDGDNLFPKVAPQAISSVENIEGNGGPGTIKKISFPEGFPFKYVKDRVDEVDHTNFKYNYS
Marked response: 0
